biological target: human dopamine reuptake transporter (Homo sapiens, UniProt Q01959); construct: expressed in transfected cells; host or cells: CHO-K1 or HEK293; assay: cell-based; settings: recombinant human dopamine transporter (DAT); read-out: Human IC50 (nM) hDAT
Sequence (Q01959 whole entry): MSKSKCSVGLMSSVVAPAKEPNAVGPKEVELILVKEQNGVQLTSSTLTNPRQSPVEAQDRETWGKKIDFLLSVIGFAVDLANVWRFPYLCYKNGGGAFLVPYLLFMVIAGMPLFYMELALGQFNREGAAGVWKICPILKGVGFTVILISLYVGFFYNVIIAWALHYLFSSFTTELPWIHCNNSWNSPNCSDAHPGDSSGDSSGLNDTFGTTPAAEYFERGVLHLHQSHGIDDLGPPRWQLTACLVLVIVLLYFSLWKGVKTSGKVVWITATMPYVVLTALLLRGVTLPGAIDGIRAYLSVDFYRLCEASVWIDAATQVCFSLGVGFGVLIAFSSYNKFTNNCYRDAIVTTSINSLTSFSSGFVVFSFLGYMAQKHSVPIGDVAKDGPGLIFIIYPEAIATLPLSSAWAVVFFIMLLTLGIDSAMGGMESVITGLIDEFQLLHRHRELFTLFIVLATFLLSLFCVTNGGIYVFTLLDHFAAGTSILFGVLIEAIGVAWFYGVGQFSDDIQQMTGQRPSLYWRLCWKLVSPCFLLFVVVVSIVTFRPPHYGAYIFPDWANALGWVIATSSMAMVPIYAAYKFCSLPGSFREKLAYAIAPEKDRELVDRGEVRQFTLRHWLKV
Assign labels as follows, please: Met for IC50 below 700 nM; Not met for IC50 equal to or exceeding 700 nM.

INSERT INTO assay_data (compound, labelvalue) VALUES
  ('CNCC1(c2ccc3c(c2)OCO3)CCC(C)(O)CC1 (stereo not drawn) [Compound 241]', 'Not met'),
  ('COC1CCCC(CN)(c2ccc(Cl)c(Cl)c2)C1 (single isomer, unassigned) [Compound 194]', 'Not met'),
  ('NCC1(c2ccc3ccccc3c2)CCC(O)CC1 (stereo not drawn) [Compound 207]', 'Not met'),
  ('CNCC1(c2ccc(Cl)c(Cl)c2)CCC(=O)CC1 [Compound 289]', 'Met'),
  ('NCC1(c2ccc(Cl)c(Cl)c2)CCC(F)(F)CC1 [Compound 267]', 'Met'),
  ('CC(N(C)C)C1(c2cccc3ccccc23)CCCCC1 (single isomer, unassigned) [60 E1]', 'Not met'),
  ('NCC1(c2ccc(Cl)c(Cl)c2)CCC(O)CC1 (stereo not drawn) [Compound 262]', 'Not met'),
  ('CCC(NC)C1(c2ccc(Cl)c(Cl)c2)CCCCC1 (single isomer, unassigned) [62 E2]', 'Met'),
  ('CC1CCCN1CC1(c2ccc(Cl)c(Cl)c2)CCCCC1 (racemic) [Compound 115]', 'Met'),
  ('NCC1(c2ccc3ccccc3c2)CCC(O)CC1 (stereo not drawn) [Compound 208]', 'Not met'),
  ('CNCC1(c2ccc3ccccc3c2)CCC(O)(CF)CC1 (stereo not drawn) [Compound 243]', 'Not met'),
  ('CC1(O)CCC(CN)(c2ccc3c(c2)OCO3)CC1 (stereo not drawn) [Compound 215]', 'Not met'),
  ('NCC1(c2cccc(C(F)(F)F)c2)CCCCC1 [Compound 36]', 'Not met'),
  ('CNC(C)C1(c2ccc3ccccc3c2)CCC(C)(O)CC1 (single isomer, unassigned) [231 E1]', 'Met'),
  ('CN1Cc2c(ccc3c2OCO3)C2(CCC(C)(O)CC2)C1 (single isomer, unassigned) [Compound 295]', 'Not met'),
  ('CN1Cc2c(ccc3c2OCO3)C2(CCC(C)(O)CC2)C1 (single isomer, unassigned) [Compound 294]', 'Not met'),
  ('CC(N)C1(c2ccc(-c3ccoc3)cc2)CCCCC1 (stereo not drawn) [Compound 20]', 'Met'),
  ('CN(C)CC1(c2ccc(Cl)c(Cl)c2)CCC(F)(F)CC1 [Compound 269]', 'Met');

====

# IC50 per record follows
molecular target: norepinephrine transporter (Rattus norvegicus, UniProt Q63380); construct: synaptosomes isolated in a 0.32 M sucrose buffer from a male Wistar rat hypothalamus; from tissue; host or cells: male Wistar rat hypothalamus synaptosomes; assay: biochemical; type: biochemical; conditions: Rat IC50 (nM) rNET, rat synaptosomes, norepinephrine transporter (NET)
Sequence (Q63380 1-617): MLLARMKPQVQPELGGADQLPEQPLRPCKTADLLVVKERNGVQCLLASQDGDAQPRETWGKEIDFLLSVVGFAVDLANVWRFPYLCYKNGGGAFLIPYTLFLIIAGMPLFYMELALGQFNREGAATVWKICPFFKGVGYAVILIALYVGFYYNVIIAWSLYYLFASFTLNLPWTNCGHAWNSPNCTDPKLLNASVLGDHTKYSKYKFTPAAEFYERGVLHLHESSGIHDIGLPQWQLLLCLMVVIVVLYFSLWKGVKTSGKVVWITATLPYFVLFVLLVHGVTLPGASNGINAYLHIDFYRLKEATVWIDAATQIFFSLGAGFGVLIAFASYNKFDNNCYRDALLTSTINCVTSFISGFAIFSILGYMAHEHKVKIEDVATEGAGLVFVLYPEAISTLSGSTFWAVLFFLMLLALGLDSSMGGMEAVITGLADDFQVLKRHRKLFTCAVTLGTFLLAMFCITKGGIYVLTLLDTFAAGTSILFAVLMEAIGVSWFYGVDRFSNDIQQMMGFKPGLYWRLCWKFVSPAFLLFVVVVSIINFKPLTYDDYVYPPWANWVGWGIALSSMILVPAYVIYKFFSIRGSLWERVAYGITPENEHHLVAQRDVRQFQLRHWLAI
recordedEndpoint: IC50 (nM)

INSERT INTO results (compound, recordedmeasurement) VALUES
  ('CC(N(C)C)C1(c2ccc3ccccc3c2)CCCCC1 (single isomer, unassigned) [56 E1]', 2.3),
  ('CC(N(C)C)C1(c2ccc3ccccc3c2)CCCCC1 (single isomer, unassigned) [56 E2]', 79);

====

molecular target: human dopamine reuptake transporter (Homo sapiens); construct: expressed in transfected cells; host or cells: CHO-K1 or HEK293; test: cell-based; details: recombinant human dopamine transporter (DAT); read-out: Human IC50 (nM) hDAT
recordedEndpoint: IC50 (nM)

INSERT INTO results (molecule, targetsystem, valuerelationsign, recordedmeasurement) VALUES
  ('COC1CCC(CN)(c2ccc(Cl)c(Cl)c2)CC1 (stereo not shown) [Compound 257]', 'human dopamine reuptake transporter (Homo sapiens)', '=', 2000),
  ('CCC(NC)C1(c2ccc(Cl)c(Cl)c2)CCCCC1 (single isomer, unassigned) [62 E1]', 'human dopamine reuptake transporter (Homo sapiens)', '=', 39),
  ('CNCC1(c2ccc(OC)cc2)CCCCC1O (single isomer, unassigned) [139 E2]', 'human dopamine reuptake transporter (Homo sapiens)', '>', 10000),
  ('NCC1(c2ccc(-c3cc(F)cc(F)c3)cc2)CCCCC1', 'human dopamine reuptake transporter (Homo sapiens)', '=', 682),
  ('CC1(O)CCCC(CN)(c2ccc(Cl)c(Cl)c2)C1 (single isomer, unassigned) [193 E1]', 'human dopamine reuptake transporter (Homo sapiens)', '=', 266),
  ('CNCC1(c2ccc3ccccc3c2)CCC(O)CC1 (stereo not shown)', 'human dopamine reuptake transporter (Homo sapiens)', '=', 5780),
  ('NCC1(c2ccc(Cl)c(Cl)c2)CCCC1', 'human dopamine reuptake transporter (Homo sapiens)', '=', 139),
  ('NCC1(c2ccc(Cl)cc2Cl)CCCCC1', 'human dopamine reuptake transporter (Homo sapiens)', '=', 9650),
  ('CCC1(O)CCC(CNC)(c2ccc(Cl)c(Cl)c2)CC1 (stereo not shown) [Compound 279]', 'human dopamine reuptake transporter (Homo sapiens)', '=', 1450),
  ('CNCC1(c2ccc3ccccc3c2)CCC(F)(F)CC1', 'human dopamine reuptake transporter (Homo sapiens)', '=', 107);

====

# Mean Specific Binding (dpm) ± S.E.M., SERT per record follows
target: 5-HT Transporter (SERT) Sites in Mouse Brain (Mus musculus); construct: Whole brains were removed and cortex and striata dissected out; from tissue; host or cells: C57BL/6 mouse frontal cortex homogenate; test: Ex vivo [3H] citalopram binding after oral dosing; design: species or system C57BL/6 mice; conditions: 30 mg/kg, mice sacrificed 60 minutes after treatment, cortex
Sequence (Q60857 whole entry): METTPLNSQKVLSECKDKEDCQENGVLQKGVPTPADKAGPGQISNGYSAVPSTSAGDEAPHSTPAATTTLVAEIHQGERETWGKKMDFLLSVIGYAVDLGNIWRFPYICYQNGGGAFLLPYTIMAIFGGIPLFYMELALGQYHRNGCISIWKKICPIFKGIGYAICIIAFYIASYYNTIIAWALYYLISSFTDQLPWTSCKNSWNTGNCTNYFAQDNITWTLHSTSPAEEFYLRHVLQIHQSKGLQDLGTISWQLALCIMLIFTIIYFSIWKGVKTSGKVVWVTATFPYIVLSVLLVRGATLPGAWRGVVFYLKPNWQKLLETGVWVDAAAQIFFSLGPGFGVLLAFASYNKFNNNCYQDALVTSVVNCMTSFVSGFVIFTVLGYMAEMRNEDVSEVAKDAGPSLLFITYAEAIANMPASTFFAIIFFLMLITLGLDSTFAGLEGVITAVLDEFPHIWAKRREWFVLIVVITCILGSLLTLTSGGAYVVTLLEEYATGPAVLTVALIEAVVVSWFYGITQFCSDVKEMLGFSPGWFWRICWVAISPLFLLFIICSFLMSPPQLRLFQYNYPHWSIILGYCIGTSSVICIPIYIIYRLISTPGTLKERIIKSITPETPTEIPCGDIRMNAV
recordedEndpoint: Mean Specific Binding (dpm) ± S.E.M., SERT

INSERT INTO assay_data (molecule, recordedmeasurement) VALUES
  ('CNC(C)C1(c2ccc3ccccc3c2)CCCCC1 (single isomer, unassigned) [58 E1]', 469),
  ('CNCC1(c2ccc(Cl)c(Cl)c2)CCC(C)(O)CC1 (centres unmarked)', 1558),
  ('CC(N(C)C)C1(c2ccc3ccccc3c2)CCCCC1 (single isomer, unassigned) [56 E1]', 151),
  ('CN(C)CC1(c2ccc(Cl)c(Cl)c2)CCC(C)(O)CC1 (centres unmarked)', 1384),
  ('CN(C)C[C@]1(c2ccc3ccccc3c2)CC[C@](C)(O)CC1', 414);

====

# log10(IC50) per record follows
target: human dopamine reuptake transporter (Homo sapiens); construct: expressed in transfected cells; host or cells: CHO-K1 or HEK293; experiment: cell-based; conditions: recombinant human dopamine transporter (DAT); read-out: Human IC50 (nM) hDAT
recordedEndpoint: log10(IC50) (log10 of the value in nM)

INSERT INTO assay_data (compound, recordedmeasurement) VALUES
  ('c1ccc2cc(C3(C4CCCN4)CCCCC3)ccc2c1 (stereo not drawn)', 1.11),
  ('NCC1(c2ccc(Cl)c(F)c2)CCCCC1', 2.62),
  ('CN(C)CC1(c2ccc(Cl)c(Cl)c2)CCC2(CC1)OCCO2', 2.29),
  ('CC(N)C1(c2ccc(-c3ccoc3)cc2)CCCCC1 (single isomer, unassigned) [20 E2]', 2.64),
  ('CN(C)CC1(c2ccc(Cl)c(Cl)c2)CCC(C)(O)CC1 (stereo not drawn)', 2.40),
  ('CNCC1(c2ccc(Cl)c(Cl)c2)CCC(F)CC1 (stereo not drawn)', 1.23),
  ('NCC1(c2ccc(Cl)c(Cl)c2)CCCC(F)(F)C1 (stereo not drawn)', 2.47),
  ('CC1CCCN(CC2(c3ccc(Cl)c(Cl)c3)CCCCC2)C1 (racemic)', 1.20);

====

biological target: norepinephrine transporter (Rattus norvegicus); construct: synaptosomes isolated in a 0.32 M sucrose buffer from a male Wistar rat hypothalamus; from tissue; host or cells: male Wistar rat hypothalamus synaptosomes; test: biochemical; format: biochemical; conditions: read-out: Rat IC50 (nM) rNET; rat synaptosomes, norepinephrine transporter (NET)
recordedEndpoint: IC50 (nM)

INSERT INTO assay_data (compound, recordedendpoint, unit, recordedmeasurement) VALUES
  ('CNC[C@@]1(c2ccc3ccccc3c2)CCCC[C@@H]1O (single isomer, unassigned) [148 E2]', 'IC50', 'nM', 4900),
  ('CNC[C@]1(c2ccc3ccccc3c2)CCCC[C@@H]1O (single isomer, unassigned) [147 E2]', 'IC50', 'nM', 1200),
  ('CNC[C@@]1(c2ccc3ccccc3c2)CCCC[C@H]1O (single isomer, unassigned) [147 E1]', 'IC50', 'nM', 370);

====

target: human serotonin reuptake transporter (Homo sapiens); test: cell-based; details: recombinant human serotonin transporter (SERT); read-out: Human IC50 (nM) hSERT
Sequence (P31645 whole entry): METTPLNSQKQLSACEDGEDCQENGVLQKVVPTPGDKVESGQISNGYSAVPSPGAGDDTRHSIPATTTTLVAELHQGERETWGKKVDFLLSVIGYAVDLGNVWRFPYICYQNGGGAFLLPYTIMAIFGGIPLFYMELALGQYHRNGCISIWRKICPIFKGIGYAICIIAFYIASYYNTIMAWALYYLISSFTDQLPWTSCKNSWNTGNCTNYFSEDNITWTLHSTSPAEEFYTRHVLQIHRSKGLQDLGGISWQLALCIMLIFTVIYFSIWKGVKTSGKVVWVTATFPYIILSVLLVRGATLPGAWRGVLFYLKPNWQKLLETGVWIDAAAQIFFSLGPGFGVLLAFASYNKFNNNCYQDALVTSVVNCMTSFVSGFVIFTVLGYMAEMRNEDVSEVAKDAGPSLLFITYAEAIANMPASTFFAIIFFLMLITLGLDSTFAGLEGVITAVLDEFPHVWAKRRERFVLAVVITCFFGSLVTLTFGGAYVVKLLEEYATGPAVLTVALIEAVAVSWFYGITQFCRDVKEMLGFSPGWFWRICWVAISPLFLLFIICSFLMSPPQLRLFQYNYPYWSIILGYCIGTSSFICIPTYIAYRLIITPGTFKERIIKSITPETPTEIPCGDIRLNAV
recordedEndpoint: IC50 (nM)

INSERT INTO assay_data (molecule, unit, valuerelationsign, recordedmeasurement) VALUES
  ('CCNCC1(c2ccc(Cl)c(Cl)c2)CCCCC1CO (single isomer, unassigned) [169 E1]', 'nM', '=', 1100),
  ('CN(C)CC1(c2ccc(Cl)c(Cl)c2)CCC(C)(O)CC1 (stereo not shown) [Compound 277]', 'nM', '=', 34),
  ('CN(C)CC1(c2ccc3c(c2)OCO3)CCC(C)(O)CC1 (stereo not shown) [Compound 242]', 'nM', '=', 7660),
  ('CN(C)CC1(c2ccc(Cl)c(Cl)c2)CCC(F)(F)CC1 [Compound 269]', 'nM', '=', 787),
  ('CN(C)CC1(c2ccc3ccccc3c2)CCC(O)CC1 (stereo not shown) [Compound 229]', 'nM', '=', 11),
  ('c1ccc2cc(C3(C4CCCN4)CCCCC3)ccc2c1 (stereo not shown) [Compound 297]', 'nM', '=', 40),
  ('CC(N)C1(c2ccc(-c3ccoc3)cc2)CCCCC1 (single isomer, unassigned) [20 E2]', 'nM', '=', 60),
  ('CNCC1(c2ccc(Cl)cc2)CCCCC1O (single isomer, unassigned) [136 E1]', 'nM', '>', 10000),
  ('CC(N)C1(c2ccc(-c3ccco3)cc2)CCCCC1 (single isomer, unassigned) [22 E1]', 'nM', '=', 63),
  ('NCC1(c2ccc(-c3cc(F)cc(F)c3)cc2)CCCCC1 [Compound 23]', 'nM', '=', 62),
  ('CC(N)C1(c2ccc(OC(F)(F)F)cc2)CCCCC1 (single isomer, unassigned) [19 E2]', 'nM', '=', 398),
  ('CNCC1(c2ccc(Cl)c(Cl)c2)CCC(OC)CC1 (stereo not shown) [Compound 259]', 'nM', '=', 5890),
  ('CN(C)CC1(c2ccc3c(c2)OCO3)CCC(O)CC1 (stereo not shown) [Compound 238]', 'nM', '=', 1180),
  ('CCCC1(O)CCC(CNC)(c2ccc(Cl)c(Cl)c2)CC1 (stereo not shown) [Compound 285]', 'nM', '=', 1140),
  ('CNCC1(c2ccc3c(c2)OCO3)CCC(O)CC1 (stereo not shown) [Compound 237]', 'nM', '=', 7300),
  ('CNCC1(c2ccc(OC)cc2)CCCCC1O (single isomer, unassigned) [140 E2]', 'nM', '>', 10000),
  ('COC1CCCC(CN)(c2ccc(Cl)c(Cl)c2)C1 (single isomer, unassigned) [Compound 194]', 'nM', '=', 330),
  ('NCC1(c2ccc(Cl)c(Cl)c2)CCC(F)(F)CC1 [Compound 267]', 'nM', '=', 1290),
  ('CC(N(C)C)C1(c2ccc(OC(F)(F)F)cc2)CCCCC1 (single isomer, unassigned) [63 E1]', 'nM', '=', 194);
